molecular target: T1, HLA-A*0201 on T2 cells (human); experiment: T2 cells, wild-type/analog half-maximal binding
T1 construct: whole, on cells; Class I MHC on the surface of T2 cells, detected with a fluorescent anti-A2 antibody; beta2-microglobulin is not mentioned for this assay; also called MHC class I (A2 allele)
Square brackets hold non-standard residues; d marks the D form. Ends that are not written are not given here. Nva = CCC[C@H](N)C(=O)O
Parameter: Relative affinity (1/RA). Scope: all listed entries.

Recorded Relative affinity (1/RA), per entry:
Item under review: FVSEK[Nva]FYV (also called FVSEK(Nva)FYV) [SSX2 41-49 (K41F, A42V, I46Nva)] . Reported Relative affinity (1/RA)?
2.4 1/RA

Item under review: FVSDKIFYV [SSX2 41-49 (K41F, A42V, E44D)] . Reported Relative affinity (1/RA)?
1.1 1/RA

Next:
Item under review: FVSEKIFXV (P8 = Phe(4-F), 4-fluorophenylalanine, also called FVSEKIF(Phe-4F)V) [SSX2 41-49 (K41F, A42V, Y48(Phe-4F))] . Reported Relative affinity (1/RA)?
1.4 1/RA
